These data points were gathered from ChEMBL document CHEMBL1126069.

Measured relative binding affinity (RBA) by item
# target of assay: Progesterone receptor (Rattus norvegicus)
# experimental protocol: Displacement of [3H]R5020 from rat progesterone receptor(PgR)
A bare number is all that is needed in reply.

Some solved entries appear below for comparison.
// query Reported relative binding affinity (RBA) for C[C@]12CC[C@H]3[C@@H](CCC4CC(=O)CC[C@@]43C)[C@@H]1C[C@H](F)[C@@H]2O (some centres undefined) : what is it?
// result 0.12

// query Reported relative binding affinity (RBA) for C[C@@H]1CC2=CC(=O)CC[C@@H]2C2CC[C@@]3(C)C(CC[C@]3(C)O)C21 (some centres undefined) : what is it?
// result 20.4

// query Reported relative binding affinity (RBA) for `C[C@]12CC[C@H]3[C@@H](CCC4=CC(=O)CC[C@@H]43)[C@@H]1CC[C@@H]2O` : what is it?
// result 3.1

Next:
// query Reported relative binding affinity (RBA) for C[C@@H]1CC2=CC(=O)CC[C@@H]2C2CC[C@@]3(C)C(C[C@H](F)[C@@H]3O)C21 (some centres undefined) : what is it?
// result 1.6

// query Reported relative binding affinity (RBA) for `C[C@]1(O)CC[C@H]2[C@@H]3CCC4=CC(=O)CCC4=C3C=C[C@@]21C` : what is it?
// result 43.7
